Listing: Kd of selected binders
# System under test: T1, Taf14_(YEATS) (S. cerevisiae, UniProt P35189 2-137)
# T1 chain: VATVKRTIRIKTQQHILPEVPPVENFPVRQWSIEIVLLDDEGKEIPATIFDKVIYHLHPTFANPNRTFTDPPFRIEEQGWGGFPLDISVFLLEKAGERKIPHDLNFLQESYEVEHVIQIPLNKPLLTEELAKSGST
# Protocol notes: ITC
Ends that are not written are not given here. * marks the point of attachment. Bz = O=C(c1ccccc1)*
Please reply with the bare figure in µM and do not write the unit itself.

These recorded examples may help you get a feel for the data.
TARKSTGGK(Bz)APRKQLASY [H3K14bz peptide] ... 385
APRKQLASK(Bz)AARKSAPSTY [H3K23bz peptide] ... 467
STGGKAPRKQLASKAARY (benzoyl-lysine (Kbz) at K18) [H3K18bz peptide] ... 85.5

Now look at this one.
Task: # input binder: KQLASKAARK(Bz)SAPSTGGVKY [H3K27bz peptide] ; wanted: its Kd
Result: 136
